We begin with a simple list: items and their reported growth.
System: HOP-92 NSCLC
Assay: NCI-60 one-dose screen, 48 h (100 = growth as untreated, 0 = no growth, -100 = all killed)
Conditions: 10 µM unless noted
Compounds without any hit were thinned out: in the full panel of roughly 83,000, 20% have a hit.
Dear colleague, please return just the value in %, with no unit written.

# count of solved cases: 3
Compound: O=C(N(c1ccccc1)c1ccccc1)n1cc(I)c2nc(Cl)nc(Cl)c21
growth (%): 71.8
--
Compound: CC(C)(Sc1cc(C(C)(C)C)c(OC(=O)CCCC(=O)O)c(C(C)(C)C)c1)Sc1cc(C(C)(C)C)c(OC(=O)CCCC(=O)O)c(C(C)(C)C)c1
growth (%): 73
--
Compound: CN(c1cc2ncc(=O)[nH]c2cc1NC(N)=NCc1ccc(Cl)cc1)C1CCCCC1
growth (%): 28

Fill in: growth of O=C1NC2(Nc3ccccc31)C(=O)Nc1c(Cl)cc(Cl)cc12 (stereo not given) is ___
106

Fill in: growth of `Cc1ccc(-c2nc(N3CCCNCC3)c3oc(-c4ccccc4)nc3n2)cc1` is ___
-27.1

* * *

Test system: KM12 colon
Assay: NCI-60 one-dose screen, 48 h
Settings: 10 µM unless noted
Compounds without any hit were thinned out: in the full panel of roughly 83,000, 20% have a hit. Active and inactive are the calls of the source. Rule for the calls: active = growth percent below 10; inactive = the rest.
Outcome (select one): Yes (active), No (inactive)

I would be grateful if you could indicate the recorded call for `N#Cc1nc(-c2ccc(F)cc2)oc1S(=O)(=O)N1CCCCC1` .
No

* * *

Tested on: A549/ATCC NSCLC
Test: NCI-60 one-dose screen, 48 h (100 = growth as untreated, 0 = no growth, -100 = all killed)
Settings: 10 µM unless noted
About 83,000 compounds went through this panel and 20% of them were active in at least one assay; those are over-represented in the sample as a whole.
We begin with a simple list: items and their reported growth.
Dear colleague, please return just the value in %, with no unit written.

Compound: CCC(=C(c1ccc(OCCN2CCCCC2)cc1)c1ccc(OCCN2CCCCC2)cc1)c1ccc(Cl)cc1
Measurement name: growth
Measured result: -72.2
//
Compound: Nc1n[nH]c2ccc([C@H]3[C@@H]4C5CCC(C5)[C@@H]4c4c(ccc5[nH]ncc45)N3S(=O)(=O)C3CC3)cc12 (stereo partly drawn)
Measurement name: growth
Measured result: 17.1
//
Compound: Cc1nc2sc(C(=O)Nc3cccc4ccccc34)c(N)c2cc1C(O)c1ccccc1 (stereo not drawn)
Measurement name: growth
Measured result: 9.88
//
Compound: Cc1c2cnccc2c(C)c2c1c1cc(C#N)ccc1n2C
Measurement name: growth
Measured result: -19.8
//
Compound: O=C1C(Cl)=C(NCCCCCCNC2=C(Cl)C(=O)c3ccccc3C2=O)C(=O)c2ccccc21
Measurement name: growth
Measured result: 102

Fill in: growth of CCn1cc(C(=O)O)c(=O)c2cc(F)c(N3CCN(CC(=O)Nc4ccc(S(=O)(=O)Nc5nccc(C)n5)cc4)C(C)C3)c(F)c21 (stereo not drawn) is ___
111

Fill in: growth of `c1cnc2c(-c3nc4ccc5[nH]ncc5c4c4c3CCCC4)c[nH]c2c1` is ___
16.6

Fill in: growth of `[O-]/[N+](=C\c1ccc(-n2cc(Cc3ccccc3Cc3cn(-c4ccc(/C=[N+](/[O-])c5ccccc5)cc4)nn3)nn2)cc1)c1ccccc1` is ___
105

* * *

Test system: K-562 leukemia
Assay: NCI-60 one-dose screen, 48 h
Details: 10 µM unless noted
This is part of a sample that, as a whole, favours compounds with a hit. Of some 83,000 tested, about 20% had one in any assay. Activity calls are given as the source filed them. Rule for the calls: active = growth percent below 10; inactive = the rest.
Outcome (select one): true (1) = active, false (0) = inactive

Compound: CCOC(=O)c1ccc(NC(=O)c2nc(-c3cc(OC)c(OC)c(OC)c3)n(-c3ccc(Cl)cc3)n2)cc1
Assigned label: false (0)
//
Compound: CCCC/C=C/[C@@H]1C[C@H]1CCO
Assigned label: false (0)
//
Compound: COc1cccc(/C=C2\COc3ccc(O)c(O)c3C2=O)c1
Assigned label: false (0)
//
Compound: O=C(O)CCN1C(=O)/C(=C/C(Cl)=C/c2ccccc2)SC1=S
Assigned label: false (0)
//
Compound: CNc1nnc2n(-c3ccccc3)c(=O)c3cnn(-c4ccccc4)c3n12
Assigned label: false (0)

I would be grateful if you could indicate the recorded call for CCN1C(=S)N(c2ccccc2)C2C1NN=c1s/c(=C3\C(=O)N(C(C)C)c4ccccc43)c(=O)n12 (stereo not given) .
false (0)

I would be grateful if you could indicate the recorded call for `COc1c(B(O)O)cccc1-c1nc2c(F)cc3[nH]ncc3c2c2c1CCCC2` .
false (0)

I would be grateful if you could indicate the recorded call for `O=C(Nc1cccc(-c2ccc(N3CCOCC3)nn2)c1)Nc1cccc(C(F)(F)F)c1` .
false (0)

I would be grateful if you could indicate the recorded call for Nc1c(C(=O)Nc2ccncc2)sc2nc3c(cc12)C(O)CCC3 (stereo not given) .
false (0)

I would be grateful if you could indicate the recorded call for `N#CC1=C(N)Oc2c(c(=O)[nH]c3ccc(Cl)cc23)C12C(=O)c1ccccc1C2=O` .
false (0)

I would be grateful if you could indicate the recorded call for `CCCCNC(=O)CC1=C(C)/C(=C/c2[nH]c(-c3ccc[nH]3)cc2OC)N=C1C` .
true (1)

* * *

System: DU-145 prostate
Assay: NCI-60 one-dose screen, 48 h
Details: 10 µM unless noted
The panel holds about 83,000 compounds, 20% with a hit somewhere; the sample as a whole holds those more often. Active and inactive are the calls of the source. The calls were made as follows: active = growth percent below 10; inactive = the rest.
Outcome (select one): active, inactive

Consider the following illustrative entries.
Chemical string: Cc1cc(S(=O)(=O)/N=C(\N)n2nc(C)c(C)c2C)c(SCc2ccccc2)cc1Cl
Assigned label: inactive

Chemical string: Cc1c2cnccc2c(C)c2c1c1cc(C#N)ccc1n2C
Assigned label: active

Chemical string: O=c1c2ccccc2n2cnc3ccc(Cl)c1c32
Assigned label: inactive

Chemical string: COc1ccc(/C=N\Nc2nc(SCCC(C)C)nc(-c3ccc(OC)cc3)c2C#N)cc1
Assigned label: inactive

I would be grateful if you could indicate the recorded call for `Nc1ncnc2c1c(-c1cccc(Cl)c1)nn2CC(=O)N1CCOCC1` .
inactive

I would be grateful if you could indicate the recorded call for `O=C(CSc1oc(-c2ccccc2)nc1S(=O)(=O)c1ccccc1)Nc1ccc(F)cc1` .
inactive

* * *

We begin with a simple list: items and their reported growth.
Test system: HS 578T breast
Test: NCI-60 one-dose screen, 48 h (100 = growth as untreated, 0 = no growth, -100 = all killed)
Details: 10 µM unless noted
Description: Growth inhibition of the HS 578T human tumor cell line is measured as a screen for anti-cancer activity. Cells are grown in 96 well plates and exposed to the test compound for 48 hours. Compounds are tested at a single concentration, which is 10^-5 M for most compounds. The reported endpoint is percent growth (GI% or GIPRCNT), where numbers from 0 - 100% represent growth inhibition, and numbers from -100% - 0 represent cell death. For example, a value of 40 represents 60% growth inhibition. […]
Compounds without any hit were thinned out: in the full panel of roughly 83,000, 20% have a hit.
Dear colleague, please return just the value in %, with no unit written.

# count of solved cases: 9
Compound: Cn1c(I)c(C#CCO[Si](C)(C)C(C)(C)C)c(=O)[nH]c1=O
Measurement name: growth
Measured result: 106

Compound: N#Cc1c(-c2ccccc2)cc(-c2ccc(Nc3nc(Nc4ccc(Cl)cc4)nc(Nc4ccc(Cl)cc4)n3)cc2)nc1N
Measurement name: growth
Measured result: 14.4

Compound: COc1ccccc1CNc1c2ccccc2nc2ccccc12
Measurement name: growth
Measured result: 62

Compound: CC(C)(C)CC(C)(C)NC(=O)Nc1ncccc1OCc1ccccc1
Measurement name: growth
Measured result: 106

Compound: C=C1C(=O)O[C@H]2[C@H]1CC/C(Cn1cc(-c3ccccc3)nn1)=C\CC[C@@]1(C)O[C@@H]21
Measurement name: growth
Measured result: 81.1

Compound: N#Cc1c(-c2ccc(Cl)cc2)nc(NN2C(=O)c3ccccc3C2=O)nc1N1CCOCC1
Measurement name: growth
Measured result: 101

Compound: CN1CCN(c2cc(Nc3cc(C4CC4)[nH]n3)nc(Nc3ccc(CC(=O)NCc4cccc(F)c4)cc3)n2)CC1
Measurement name: growth
Measured result: -6.93

Compound: O=C1c2ccccc2-c2c1c1c(=O)[nH]c3ccccc3c1n2Cc1ccccc1
Measurement name: growth
Measured result: -15

Compound: NNc1nc(-c2cccnc2)nc2c1sc(=S)n2-c1ccccc1
Measurement name: growth
Measured result: 112

Could you now look at the following compound, please?
# get_value(readout= growth, system= HS 578T breast) for Nc1c(C(=O)Nc2ccncc2)sc2nc3c(cc12)C(O)CCC3 (stereo not given)
118

* * *

Tested on: DU-145 prostate
Assay: NCI-60 one-dose screen, 48 h
Details: 10 µM unless noted
This is part of a sample that, as a whole, favours compounds with a hit. Of some 83,000 tested, about 20% had one in any assay. Activity calls are given as the source filed them. Rule for the calls: active = growth percent below 10; inactive = the rest.
Outcome (select one): active, inactive

Consider the following illustrative entries.
Compound: O=C1/C(=C/c2cccc(F)c2)CN(C(=O)C(Cl)Cl)C/C1=C\c1cccc(F)c1
Assigned label: active

Compound: CC1CCc2c(C(=O)Nc3ncc(Cc4cccc([N+](=O)[O-])c4)s3)csc2C1 (stereo not given)
Assigned label: inactive

I would be grateful if you could indicate the recorded call for `O=S(=O)(NCCNc1nccc(-c2c(-c3ccc(F)c(O)c3)nc3occn23)n1)c1ccc(Cl)cc1` .
inactive

I would be grateful if you could indicate the recorded call for `CN1CCc2nc3sc(C(N)=O)c(N)c3c(-c3cccs3)c2C1` .
inactive

I would be grateful if you could indicate the recorded call for COc1cc2c(c(OC)c1OC)CCC(c1cccc(C(=O)Nc3ccc(C#N)cc3)c1)O2 (stereo not given) .
inactive

I would be grateful if you could indicate the recorded call for `CCCCCCCCCc1ccc(OCCOCCOCCOCCOCCOCCOCCOCCOCCO)cc1` .
inactive

I would be grateful if you could indicate the recorded call for `CN(C)CC(C)(C)C(=O)/C=C/c1ccccc1` .
active

I would be grateful if you could indicate the recorded call for `CCNCCNc1cc(C2CCCCC2)c(C#N)c2nc3ccccc3n12` .
inactive

I would be grateful if you could indicate the recorded call for COc1cc2nc3cc([N+](=O)[O-])ccc3c(NCCNCC(C)O)c2cc1OC (stereo not given) .
active

I would be grateful if you could indicate the recorded call for `CCCc1c(OC(=O)c2ccccc2)nc2[nH]c(=O)sc2c1C` .
inactive

I would be grateful if you could indicate the recorded call for Cc1nc2sc(C(=O)Nc3cccc(Br)c3)c(N)c2cc1C(O)c1ccccc1 (stereo not given) .
inactive

I would be grateful if you could indicate the recorded call for N#Cc1ccc(O)c(C2=NCC(c3ccccc3)O2)c1 (stereo not given) .
inactive

I would be grateful if you could indicate the recorded call for `Cc1cc(C(=O)O)c(C)n1-c1cccc(C(=O)O)c1` .
inactive

I would be grateful if you could indicate the recorded call for `CC(=O)O[C@@H]1C[C@]2(C(C)C)O[C@@]1(C)[C@@H]1CCC(C)=C1[C@@H]2OC(=O)/C=C/c1ccccc1` .
inactive
